# Protocol notes: Stability of linkers L1-L4 conjugated to FGF21 (LC-MS)
# Assay type: physicochemical
# Measurement setup: +4° C., 336 hrs
Attribute measured: 0 linker (unconjugated protein)
Answer format: number, then unit.

Molecule	0 linker (unconjugated protein)
L4-FGF21ΔH-A129C: Linker-4 conjugated to FGF21ΔH-A129C protein (Table 4; Table 5 row L4) (conjugate, UniProt Q9NSA1 29-209, looked up, variant H1* A129C, Linker-4 attached) Fibroblast growth factor 21: PIPDSSPLLQFGGQVRQRYLYTDDAQQTEAHLEIREDGTVGGAADQSPESLLQLKALKPGVIQILGVKTSRFLCQRPDGALYGSLHFDPEACSFRELLLEDGYNVYQSEAHGLPLHLPGNKSPHRDPCPRGPARFLPLPGLPPALPEPPGILAPQPPDVGSSDPLSMVGPSQGRSPSYAS	22%
L2-FGF21ΔH-A129C: Linker-2 conjugated to FGF21ΔH-A129C protein (Table 4; Table 5 row L2) (conjugate, UniProt Q9NSA1 29-209, looked up, variant H1* A129C, Linker-2 attached) Fibroblast growth factor 21: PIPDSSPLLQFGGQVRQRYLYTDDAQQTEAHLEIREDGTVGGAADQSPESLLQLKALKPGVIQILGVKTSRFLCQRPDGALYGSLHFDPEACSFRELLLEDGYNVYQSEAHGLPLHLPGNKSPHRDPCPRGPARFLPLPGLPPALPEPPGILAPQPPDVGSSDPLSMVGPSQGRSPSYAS	26%
L3-FGF21ΔH-A129C: Linker-3 conjugated to FGF21ΔH-A129C protein (Table 4; Table 5 row L3) (conjugate, UniProt Q9NSA1 29-209, looked up, variant H1* A129C, Linker-3 attached) Fibroblast growth factor 21: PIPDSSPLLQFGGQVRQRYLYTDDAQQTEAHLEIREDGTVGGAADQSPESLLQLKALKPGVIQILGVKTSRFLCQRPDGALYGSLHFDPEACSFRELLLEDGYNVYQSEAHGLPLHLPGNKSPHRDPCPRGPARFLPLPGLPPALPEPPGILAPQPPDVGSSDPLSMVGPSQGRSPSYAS	20%

Attention now shifts to the item below.
Task: Which 0 linker (unconjugated protein) reading was recorded for the molecule L1-FGF21ΔH-A129C: Linker-1 conjugated to FGF21ΔH-A129C protein (Table 4; Table 5 row L1) (conjugate, UniProt Q9NSA1 29-209, looked up, variant H1* A129C, Linker-1 attached) Fibroblast growth factor 21: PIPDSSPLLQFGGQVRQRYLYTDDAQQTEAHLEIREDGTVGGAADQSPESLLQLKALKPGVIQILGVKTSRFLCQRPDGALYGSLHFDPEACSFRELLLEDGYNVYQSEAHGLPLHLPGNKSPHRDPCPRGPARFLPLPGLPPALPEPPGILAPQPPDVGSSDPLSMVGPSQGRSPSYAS ?
Output: 12%
